# System: NKCC1
# Assay Details: Calcium kinetic assay in primary cultures of immature hippocampal neurons
# Type: cell-based
# Test Context: 10 μM; immature neurons 3 DIV; Table 2
Measurement Name: NKCC1 Inhibition % 10 μM Neurons Calcium kinetic assay

compound="CN(C)S(=O)(=O)c1cc(C(=O)O)ccc1NCCCCCC(F)(F)F [Compound 3.16]" result=Inactive
compound="O=C(O)c1ccc(NCCCCCCCC(F)(F)F)c(S(=O)(=O)N2CCCC2)c1 [Compound 5.5]" result=39%
compound="COCCNc1ccc(C(=O)O)cc1S(=O)(=O)N(C)C [Compound 3.18]" result=Inactive
compound="CNS(=O)(=O)c1cc(C(=O)O)ccc1NCCC(C)(C)C [Compound 3.9]" result=14%
compound="CCCCCCNc1ccc(C(=O)O)cc1S(=O)(=O)N(C)C [Compound 3.12]" result=13%
compound="CCCCNc1cc(C(=O)O)cc(S(N)(=O)=O)c1Oc1ccccc1 [Bumetanide, reference compound]" result=52%
compound="CCCCCCCCNc1ccc(C(=O)O)cc1S(=O)(=O)NC [Compound 3.8]" result=20%
compound="O=C(O)c1ccc(NCCCCCCCC(F)(F)F)c(S(=O)(=O)N2CCOCC2)c1 [Compound 5.7]" result=24%
compound="CCCCNc1ccc(C(=O)O)cc1S(N)(=O)=O [Compound 2.6, 4-(butylamino)-3-sulfamoyl-benzoic acid]" result=14%
compound="CCCCCCCCNc1ccc(C(=O)O)cc1S(N)(=O)=O [Compound 2.8, 4-(octylamino)-3-sulfamoyl-benzoic acid]" result=3%
compound="CCCCNc1ccc(C(=O)O)cc1S(=O)(=O)NC [Compound 3.6]" result=6%

* * *

# System: NKCC2 (Homo sapiens, UniProt Q13621)
# Construct: expressed in transfected cells; host or cells: HEK293
# Sequence (Q13621 whole entry, species assumed): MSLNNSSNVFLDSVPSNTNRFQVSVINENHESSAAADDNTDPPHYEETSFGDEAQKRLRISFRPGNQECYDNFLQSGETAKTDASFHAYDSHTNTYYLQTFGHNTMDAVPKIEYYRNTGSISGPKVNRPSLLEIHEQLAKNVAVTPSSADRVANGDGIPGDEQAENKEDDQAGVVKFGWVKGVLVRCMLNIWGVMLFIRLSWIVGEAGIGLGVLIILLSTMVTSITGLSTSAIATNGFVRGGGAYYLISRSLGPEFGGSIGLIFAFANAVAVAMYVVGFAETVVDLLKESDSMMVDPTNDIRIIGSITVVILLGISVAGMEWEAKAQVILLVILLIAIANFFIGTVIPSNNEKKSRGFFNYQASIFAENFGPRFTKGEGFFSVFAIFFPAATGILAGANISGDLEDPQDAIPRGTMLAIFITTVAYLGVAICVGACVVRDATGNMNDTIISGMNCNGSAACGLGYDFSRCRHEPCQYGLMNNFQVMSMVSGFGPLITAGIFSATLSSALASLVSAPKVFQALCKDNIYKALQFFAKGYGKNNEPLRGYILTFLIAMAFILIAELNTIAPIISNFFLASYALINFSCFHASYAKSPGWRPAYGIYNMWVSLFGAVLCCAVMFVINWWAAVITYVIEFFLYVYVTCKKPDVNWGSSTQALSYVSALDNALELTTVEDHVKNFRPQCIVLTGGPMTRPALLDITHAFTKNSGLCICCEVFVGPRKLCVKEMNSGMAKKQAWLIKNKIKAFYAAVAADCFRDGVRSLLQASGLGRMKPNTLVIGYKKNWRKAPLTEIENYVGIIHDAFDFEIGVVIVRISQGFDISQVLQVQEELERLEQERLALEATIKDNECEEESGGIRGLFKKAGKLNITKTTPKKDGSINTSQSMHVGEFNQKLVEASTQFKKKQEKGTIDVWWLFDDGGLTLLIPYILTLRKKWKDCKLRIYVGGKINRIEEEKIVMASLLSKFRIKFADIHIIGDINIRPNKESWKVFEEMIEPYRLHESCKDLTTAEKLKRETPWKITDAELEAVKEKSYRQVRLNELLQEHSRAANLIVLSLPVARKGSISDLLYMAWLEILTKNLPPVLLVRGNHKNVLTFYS
# Assay Details: Thallium-based assay in NKCC2-transfected HEK293 cells
# Format: cell-based
# Test Context: 10 μM; NKCC2-transfected HEK293; Table 2
Measurement Name: inhibition at 10 µM (%)

compound="CCCCNc1cc(C(=O)O)cc(S(N)(=O)=O)c1Oc1ccccc1 [Bumetanide, reference compound]" result_number=99
compound=CCCCCCNc1ccc([N+](=O)[O-])cc1S(=O)(=O)NC result_number=0
compound=CN(C)S(=O)(=O)c1cc(C(=O)O)ccc1NCCC(C)(C)C result_number=0
compound=CCCCCCCCNc1ccc(C(=O)O)cc1S(=O)(=O)NC result_number=0
compound=CCCCNc1ccc(C(=O)O)cc1S(=O)(=O)NC result_number=22
